- cond: in water, 313.2 K

[
  {
    "record_smiles": "COc1c(C)c2c(c(O)c1C/C=C(\\C)CCC(=O)OCCN1CCOCC1)C(=O)OC2",
    "solubility (mole fraction)": "3.49e-06"
  }
]

---

- cond: in n-butanol, 303.2 K

[
  {
    "record_smiles": "COc1c(C)c2c(c(O)c1C/C=C(\\C)CCC(=O)OCCN1CCOCC1)C(=O)OC2",
    "solubility (mole fraction)": 0.0119
  }
]

---

- cond: in ethanol, 303.2 K
parameter_measured: solubility (mole fraction)

[
  {
    "record_smiles": "COc1c(C)c2c(c(O)c1C/C=C(\\C)CCC(=O)OCCN1CCOCC1)C(=O)OC2",
    "result_number": 0.00676
  }
]

Taken from BigSolDB 2.1.
